Hello, the source for this data is ChEMBL document CHEMBL1134564, in case you need it.

Listed compounds paired with reported Ki
Target: Prothrombin (Homo sapiens, UniProt P00734)
Assay: Inhibition of Human Serine Protease Thrombin.
Please state the figure in µM; there is no need to write the unit.

Known Ki results, listed for orientation:
| INPUT SMILES | VALUE OBSERVED |
| --- | --- |
| N=C(N)c1ccc2nc(-c3ccccc3)[nH]c2c1 | 340 |
| N=C(N)c1ccc2nc(-c3ccc4ccccc4c3O)[nH]c2c1 | 80 |
| Cn1c(-c2cccc(-c3ccccc3)c2O)nc2ccc(C(=N)N)cc21 | 70 |
| Cc1cc(Br)c(O)c(-c2cc3cc(C(=N)N)ccc3[nH]2)c1 | 0.18 |
| N=C(N)c1ccc2[nH]c(-c3cccc(F)c3O)nc2c1 | 7 |

Ki for N=C(N)c1ccc2oc(-c3cccc(-c4ccccc4)c3O)cc2c1 ?
7

Same lookup for N=C(N)c1ccc2[nH]c(-c3cc([N+](=O)[O-])cc(-c4ccccc4)c3O)cc2c1 , please.
0.11

Same lookup for N=C(N)c1ccc2[nH]c(-c3cccc(Br)c3O)nc2c1 , please.
2.3

###

Target: UniProt:P00749
Assay: ComInhibition of Human Serine Protease Urokinase Plasminogen Activator (u-PA).
METRIC NAME: pKi
The read-out pKi is expressed as -log10 of concentration in moles per litre.

Known pKi results, listed for orientation:
| INPUT SMILES | TARGET OF ASSAY | METRIC NAME | VALUE OBSERVED |
| --- | --- | --- | --- |
| CCN(CC)c1ccc(-c2nc3cc(C(=N)N)ccc3[nH]2)c(O)c1 | UniProt:P00749 | pKi | 4.89 |
| N=C(N)c1ccc2[nH]c(-c3cc([N+](=O)[O-])cc(Br)c3O)cc2c1 | UniProt:P00749 | pKi | 6.55 |
| N=C(N)c1ccc2nc(-c3cccc([N+](=O)[O-])c3O)[nH]c2c1 | UniProt:P00749 | pKi | 6.05 |
| N=C(N)c1ccc2nc(-c3cc(F)ccc3O)[nH]c2c1 | UniProt:P00749 | pKi | 5.55 |

Now, please, on to the next compound.
pKi for Cc1cc(Br)c(O)c(-c2nc3ccc(C(=N)N)cc3[nH]2)c1 ?
6.55

###

Target: Tissue-type plasminogen activator (Homo sapiens, UniProt P00750)
Sequence (P00750 whole entry): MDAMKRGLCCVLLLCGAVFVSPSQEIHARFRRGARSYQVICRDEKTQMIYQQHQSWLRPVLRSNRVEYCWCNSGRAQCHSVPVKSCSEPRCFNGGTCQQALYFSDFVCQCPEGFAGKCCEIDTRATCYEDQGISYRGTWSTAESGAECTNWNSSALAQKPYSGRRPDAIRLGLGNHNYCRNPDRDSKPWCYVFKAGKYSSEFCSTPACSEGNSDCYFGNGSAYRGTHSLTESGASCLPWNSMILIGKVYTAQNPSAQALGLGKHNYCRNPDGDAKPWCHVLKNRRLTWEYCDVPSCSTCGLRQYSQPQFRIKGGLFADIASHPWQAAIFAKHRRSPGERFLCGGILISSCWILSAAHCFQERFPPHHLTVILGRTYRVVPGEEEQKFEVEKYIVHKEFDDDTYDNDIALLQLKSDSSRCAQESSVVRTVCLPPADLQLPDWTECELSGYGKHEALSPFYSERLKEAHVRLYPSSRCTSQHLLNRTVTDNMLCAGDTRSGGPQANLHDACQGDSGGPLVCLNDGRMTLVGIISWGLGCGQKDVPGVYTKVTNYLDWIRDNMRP
Experiment: Inhibition of Human Serine Protease tissue type Plasminogen Activator (t-PA).
Listed compounds paired with reported Ki

| INPUT SMILES | Ki |
| --- | --- |
| N=C(N)c1ccc2oc(-c3cccc(-c4ccccc4)c3O)cc2c1 | 2.8 µM |
| N=C(N)c1ccc2nc(-c3ccccc3)[nH]c2c1 | 381 µM |
| CCN(CC)c1ccc(-c2nc3cc(C(=N)N)ccc3[nH]2)c(O)c1 | 100 µM |

Ki for Cc1cccc(-c2nc3cc(C(=N)N)ccc3[nH]2)c1O ?
69 µM

Same lookup for N=C(N)c1ccc2[nH]c(-c3cccc(F)c3O)nc2c1 , please.
10 µM

Same lookup for N=C(N)c1ccc2[nH]c(-c3cccc(Br)c3O)nc2c1 , please.
3.4 µM

Same lookup for N=C(N)c1ccc2nc(-c3ccc4ccccc4c3O)[nH]c2c1 , please.
31 µM

Same lookup for COc1ccc(O)c(-c2nc3ccc(C(=N)N)cc3[nH]2)c1 , please.
63 µM

Same lookup for COc1cccc(-c2nc3ccc(C(=N)N)cc3[nH]2)c1O , please.
69 µM

Same lookup for N=C(N)c1ccc2[nH]c(-c3cccc(-c4ccccc4)c3)cc2c1 , please.
138 µM

Same lookup for N=C(N)c1ccc2[nH]c(-c3cc([N+](=O)[O-])cc(-c4ccccc4)c3O)cc2c1 , please.
0.019 µM
